Data credit: ChEMBL document CHEMBL1143122

test system: M14; assay: Antiproliferative activity against human M14 cells after 48 hrs; format: functional; conditions: M14, 48 h
Exam item: assign True to entries whose GI50 is below 2000 nM and False to entries at or above 2000 nM. Note that a value of exactly 2000 nM receives False.

Worked cases, answers included:
CCCCCCCCCCCCCCN[C@H](CO)[C@H](O)c1ccccc1 | True
C[C@H](NC(=O)CCCCCCCCCCCCCCC[n+]1ccccc1)[C@H](O)c1ccccc1.[Br-] | False
C[C@@H](NC(=O)CCCCCCCCCCCCCCC[n+]1ccccc1)[C@@H](O)c1ccccc1.[Br-] | False
CCCCCCCCCCCCCCN[C@@H](CO)Cc1ccccc1 | False

Here is another compound to look at.
Exam item: Please let me know if CCCCCCCCCCCCCCN[C@H](C)[C@@H](O)c1ccccc1.Cl shows GI50 below 2000 nM.
Marked response: True
